- Assayed target: human Phosphodiesterase 4A1 (PDE4A1), PDE4A (gene 5141) (UniProt P27815)
- Sequence (P27815 whole entry, looked up): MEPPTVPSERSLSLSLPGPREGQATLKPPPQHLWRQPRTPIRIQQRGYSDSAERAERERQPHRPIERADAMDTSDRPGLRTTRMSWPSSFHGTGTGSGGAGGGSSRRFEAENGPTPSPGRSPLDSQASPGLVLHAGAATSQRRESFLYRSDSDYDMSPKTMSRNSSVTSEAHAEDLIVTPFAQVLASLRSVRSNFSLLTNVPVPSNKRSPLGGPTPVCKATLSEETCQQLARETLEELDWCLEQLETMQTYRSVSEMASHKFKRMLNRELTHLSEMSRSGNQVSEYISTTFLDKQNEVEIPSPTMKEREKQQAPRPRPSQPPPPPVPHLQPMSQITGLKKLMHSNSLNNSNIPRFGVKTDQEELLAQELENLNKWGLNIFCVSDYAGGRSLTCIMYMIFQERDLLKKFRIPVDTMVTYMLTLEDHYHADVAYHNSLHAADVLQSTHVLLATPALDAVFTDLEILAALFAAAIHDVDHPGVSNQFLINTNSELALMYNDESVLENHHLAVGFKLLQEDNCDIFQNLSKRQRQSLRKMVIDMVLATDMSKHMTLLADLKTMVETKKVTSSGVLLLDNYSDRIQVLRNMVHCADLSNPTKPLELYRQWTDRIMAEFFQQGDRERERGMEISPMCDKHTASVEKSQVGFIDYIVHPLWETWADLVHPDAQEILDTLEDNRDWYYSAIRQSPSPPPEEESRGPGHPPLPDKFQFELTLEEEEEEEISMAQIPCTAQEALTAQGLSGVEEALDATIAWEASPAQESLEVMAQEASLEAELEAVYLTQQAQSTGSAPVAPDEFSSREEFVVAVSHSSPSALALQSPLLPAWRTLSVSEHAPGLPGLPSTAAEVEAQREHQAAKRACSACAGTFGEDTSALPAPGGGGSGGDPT
- Experiment: NVS_ENZ_hPDE4A1: NovaScreen (NVS) Enzymatic Assay for human Phosphodiesterase 4A1 (PDE4A1) (AID 2283191)
- Method: NVS_ENZ_hPDE4A1 is a biochemical, single-readout assay that uses extracted gene-proteins in a cell-free assay. Measurements were taken 1 hour after chemical dosing in a 384-well plate.NVS_ENZ_hPDE4A1 is one of one assay component(s) measured or calculated from the NVS_ENZ_hPDE4A1 assay. […] This assay endpoint, NVS_ENZ_hPDE4A1, was analyzed in the positive analysis fitting direction relative to DMSO as the negative control and baseline of activity. […]
Inconclusive results are not listed. The source made the active and inactive calls. Rule for the calls: active = hit-call score of the fitted dose curve at least 0.9, where 1 is the maximum; inconclusive = response in the unintended direction; inactive = score below 0.9.
Bench note: report the call from active, inactive

I'd appreciate the recorded outcome for CCNc1nc(Cl)nc(NC(C)C)n1 from this test. active

I'd appreciate the recorded outcome for CCNc1nc(Cl)nc(NCC)n1 from this test. active

I'd appreciate the recorded outcome for CCCN(CCC)c1c([N+](=O)[O-])cc(S(N)(=O)=O)cc1[N+](=O)[O-] from this test. inactive

I'd appreciate the recorded outcome for COc1nc(NC(C)C)nc(NC(C)C)n1 from this test. active

I'd appreciate the recorded outcome for CCOP(=S)(OCC)SCn1c(=O)oc2cc(Cl)ccc21 from this test. active

* * *

- Read-out: Fatty Acid-Binding Protein 1 (FABP1), FABP1 (gene 2168)
- Experiment: LTEA_HepaRG_FABP1: Life Technologies and Expression Analysis (LTEA) Assay for Fatty Acid-Binding Protein 1 (FABP1) using HepaRG (AID 2283494)
- Condition parameters: mRNA level, 48 h; actives raise or lower the signal
Calls of active or inactive are those of the source. The calls were made as follows: active = hit-call score of the fitted dose curve at least 0.9, where 1 is the maximum; inactive = score below 0.9.
Bench note: report the call from active, inactive

I'd appreciate the recorded outcome for CCOC(=O)CC(SP(=S)(OC)OC)C(=O)OCC (configuration not stated) from this test. inactive

I'd appreciate the recorded outcome for CC1COC(Cn2cncn2)(c2ccc(Oc3ccc(Cl)cc3)cc2Cl)O1 (configuration not stated) from this test. active

I'd appreciate the recorded outcome for O=C(Nc1ccccc1)Nc1ccnc(Cl)c1 from this test. active

I'd appreciate the recorded outcome for COc1nc(NC(C)C)nc(NC(C)C)n1 from this test. active

I'd appreciate the recorded outcome for CCNc1nc(Cl)nc(NCC)n1 from this test. inactive

I'd appreciate the recorded outcome for CCCCNC(=O)OCC#CI from this test. active

I'd appreciate the recorded outcome for COP(=S)(OC)Oc1nc(Cl)c(Cl)cc1Cl from this test. inactive

I'd appreciate the recorded outcome for O=C(O)COc1nc(Cl)c(Cl)cc1Cl from this test. inactive

I'd appreciate the recorded outcome for CC(C)C1(C)N=C(c2nc3ccccc3cc2C(=O)O)NC1=O (configuration not stated) from this test. inactive

I'd appreciate the recorded outcome for CCCC1COC(Cn2cncn2)(c2ccc(Cl)cc2Cl)O1 (configuration not stated) from this test. active

I'd appreciate the recorded outcome for CCc1nn(C)c(C(=O)NCc2ccc(C(C)(C)C)cc2)c1Cl from this test. active

I'd appreciate the recorded outcome for COC(=O)C=C(C)OP(=O)(OC)OC from this test. inactive

I'd appreciate the recorded outcome for CCNc1nc(Cl)nc(NC(C)C)n1 from this test. inactive

I'd appreciate the recorded outcome for CNC(=O)ON=CC(C)(C)SC from this test. inactive

I'd appreciate the recorded outcome for CC(Oc1ccc(Cl)cc1Cl)C(=O)O (configuration not stated) from this test. active

I'd appreciate the recorded outcome for CC1=C(C(=O)Nc2ccccc2)SCCO1 from this test. active

I'd appreciate the recorded outcome for COc1ccc(C(c2ccc(OC)cc2)C(Cl)(Cl)Cl)cc1 from this test. active

* * *

- Experiment: STM_H9_OrnithineISnorm_perc: Stemina devTOX quickPredict H9 human embryonic stem cell (hESC)-based Assay for Ornithine (ORN) Metabolite Biomarker, Normalized (AID 2283712);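 note: ornithine released into spent medium during last day measured by mass spectrometry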
Activity calls are given as the source filed them. How the source made its calls: active means hit-call score of the fitted dose curve at least 0.9, where 1 is the maximum; inactive means score below 0.9.
Bench note: report the call from y = active, n = inactive

I'd appreciate the recorded outcome for OC(c1ccc(Cl)cc1)(c1cncnc1)c1ccccc1Cl (configuration not stated) from this test. y

I'd appreciate the recorded outcome for COC(=O)c1ccccc1C(=O)OC from this test. n

I'd appreciate the recorded outcome for CCCCC(CC)COC(=O)c1ccccc1C(=O)OCC(CC)CCCC (configuration not stated) from this test. n

I'd appreciate the recorded outcome for COC(=O)N(OC)c1ccccc1COc1ccn(-c2ccc(Cl)cc2)n1 from this test. y

I'd appreciate the recorded outcome for CCCCNC(=O)n1c(NC(=O)OC)nc2ccccc21 from this test. y

I'd appreciate the recorded outcome for CC(C)(C)c1ccc(CSc2cnn(C(C)(C)C)c(=O)c2Cl)cc1 from this test. y

I'd appreciate the recorded outcome for CCNc1nc(Cl)nc(NCC)n1 from this test. y

I'd appreciate the recorded outcome for C=CCC1=C(C)[C@@H](OC(=O)[C@@H]2[C@@H](C=C(C)C)C2(C)C)CC1=O from this test. n

I'd appreciate the recorded outcome for CCCCOC(=O)c1ccccc1C(=O)OCCCC from this test. y

I'd appreciate the recorded outcome for C=CC1(C)OC(=O)N(c2cc(Cl)cc(Cl)c2)C1=O (configuration not stated) from this test. n

I'd appreciate the recorded outcome for COc1ccc(C(c2ccc(OC)cc2)C(Cl)(Cl)Cl)cc1 from this test. n

I'd appreciate the recorded outcome for COc1nc(NC(C)C)nc(NC(C)C)n1 from this test. n

* * *

- Assayed target: Bile acid receptor (Homo sapiens)
- Experiment: OT_FXR_FXRSRC1_0480: Odyssey Thera (OT) 8-hour HEK293T Protein-Complementation Assay for Farnesoid X receptor/SRC-1 Co-activator (AID 2283383)
Results filed as inconclusive are left out. The source made the active and inactive calls. How the source made its calls: active means hit-call score of the fitted dose curve at least 0.9, where 1 is the maximum; inconclusive means response in the unintended direction; inactive means score below 0.9.
Property: AC50

CC(C)(C)c1ccc(CSc2cnn(C(C)(C)C)c(=O)c2Cl)cc1 ... 5.14 µM (active)
C=CCC1=C(C)[C@@H](OC(=O)[C@@H]2[C@@H](C=C(C)C)C2(C)C)CC1=O ... 16.6 µM (active)
O=C(O)COc1nc(Cl)c(Cl)cc1Cl ... inactive
CC1COC(Cn2cncn2)(c2ccc(Oc3ccc(Cl)cc3)cc2Cl)O1 (centres undefined) ... 11.2 µM (active)
CCCC1COC(Cn2cncn2)(c2ccc(Cl)cc2Cl)O1 (centres undefined) ... inactive
CC(Oc1ccc(Cl)cc1Cl)C(=O)O (centres undefined) ... inactive

Note down AC50 recorded for COC(=O)N(OC)c1ccccc1COc1ccn(-c2ccc(Cl)cc2)n1 1.54 µM (active)

Note down AC50 recorded for CC(C)C1(C)N=C(c2nc3ccccc3cc2C(=O)O)NC1=O (centres undefined) inactive

Note down AC50 recorded for COC(=O)c1ccccc1C(=O)OC inactive

* * *

- Experiment: CEETOX_H295R_PROG: CeeTox H295R High-throughput Steroidogenesis Assay for Progesterone (PROG) (AID 2283442)
- Condition parameters: actives raise or lower the signal
Active and inactive are the calls of the source. How the source made its calls: active means hit-call score of the fitted dose curve at least 0.9, where 1 is the maximum; inactive means score below 0.9.
Bench note: report the call from 1.0 for active, 0.0 for inactive

I'd appreciate the recorded outcome for CC1=C(C(=O)Nc2ccccc2)SCCO1 from this test. 0.0

I'd appreciate the recorded outcome for C=CC1(C)OC(=O)N(c2cc(Cl)cc(Cl)c2)C1=O (configuration not stated) from this test. 1.0

I'd appreciate the recorded outcome for CNC(=S)S from this test. 0.0

I'd appreciate the recorded outcome for Cc1c(F)c(F)c(COC(=O)C2C(/C=C(\Cl)C(F)(F)F)C2(C)C)c(F)c1F (configuration not stated) from this test. 0.0

I'd appreciate the recorded outcome for N#CC(CCc1ccc(Cl)cc1)(Cn1cncn1)c1ccccc1 (configuration not stated) from this test. 1.0

I'd appreciate the recorded outcome for CCCC1COC(Cn2cncn2)(c2ccc(Cl)cc2Cl)O1 (configuration not stated) from this test. 0.0

I'd appreciate the recorded outcome for Cc1cc(Cl)ccc1OCC(=O)O from this test. 0.0

I'd appreciate the recorded outcome for CCCCNC(=O)n1c(NC(=O)OC)nc2ccccc21 from this test. 0.0

I'd appreciate the recorded outcome for CCNc1nc(Cl)nc(NCC)n1 from this test. 0.0

I'd appreciate the recorded outcome for COc1nc(NC(C)C)nc(NC(C)C)n1 from this test. 0.0

I'd appreciate the recorded outcome for CCNc1nc(Cl)nc(NC(C)C)n1 from this test. 0.0

I'd appreciate the recorded outcome for C=CCC1=C(C)C(OC(=O)C2C(C=C(C)C)C2(C)C)CC1=O (configuration not stated) from this test. 0.0

* * *

- Experiment: BSK_LPS_SRB: Viability Assessment in the BioMAP Diversity Plus: LPS Assay (AID 2283079);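 note: total protein by sulforhodamine B absorbance as a cytotoxicity measure; measured one day after compound addition; fitted in both directions against DMSO so loss or gain of signal counts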
- Condition parameters: primary human HUVEC with PBMC
Activity calls are given as the source filed them. How the source made its calls: active means hit-call score of the fitted dose curve at least 0.9, where 1 is the maximum; inactive means score below 0.9.
Property: AC50

CC1=C(C(=O)Nc2ccccc2)SCCO1 ... inactive
CCNc1nc(Cl)nc(NCC)n1 ... inactive
CCOC(=O)CC(SP(=S)(OC)OC)C(=O)OCC (configuration not stated) ... inactive
COC(=O)C(C)Oc1ccc(Oc2ccc(Cl)cc2Cl)cc1 (configuration not stated) ... inactive
Cc1cc(Cl)ccc1OCC(=O)O ... inactive
CNC(=O)ON=CC(C)(C)SC ... inactive

Shifting focus to the compound that follows.
Note down AC50 recorded for COC(=O)N(OC)c1ccccc1COc1ccn(-c2ccc(Cl)cc2)n1 10.1 µM (active)

Source: PubChem BioAssay (EPA / NIEHS)
